System: HCV replicon 1B
method: Cell-based HCV replicon assay (Replicon Assay B), replicon 1B
Parameters: species or system Hepatitis C virus
assay-context: replicon RNA by real-time PCR, 3 days
parameter: EC50 (pM)
Answer in pM, number only, no unit symbol.

compound	value-observed
COC(=O)NC(C(=O)N1CCC[C@H]1c1ncc(-c2cc(F)c3c(c2)OC(c2ccc4c(c2)OCCC4)n2c-3cc3cc(-c4cnc([C@@H]5CCCN5C(=O)[C@@H](NC(=O)OC)C5CCOCC5)[nH]4)ccc32)[nH]1)C(C)(C)F (single isomer, unassigned) [Compound 88]	2.6

Problem: Please look up its EC50: COC(=O)N[C@H](C(=O)N1CCC[C@H]1c1ncc(-c2cc(F)c3c(c2)OC(c2ccc4c(c2)OCCC4C)n2c-3cc3cc(-c4cnc([C@@H]5CCCN5C(=O)[C@@H](NC(=O)OC)C(C)C)[nH]4)ccc32)[nH]1)C(C)C (single isomer, unassigned) [Compound 10]
Solution: 1.2

Problem: Please look up its EC50: CCO[C@H](C)[C@H](NC(=O)OC)C(=O)N1CCC[C@H]1c1ncc(-c2cc(F)c3c(c2)OC(c2ccc4c(c2)OCCC4)n2c-3cc3cc(-c4cnc([C@@H]5CCCN5C(=O)[C@@H](NC(=O)OC)C(C)C)[nH]4)ccc32)[nH]1 (single isomer, unassigned) [Compound 40]
Solution: 2.2

* * *

Test system: HCV replicon 1A
method: Cell-based HCV replicon assay (Replicon Assay A), replicon 1A
Design: species or system Hepatitis C virus
assay-context: replicon RNA by real time PCR, day 3
Property: pEC50; scope: individual molecules
Note on pEC50: it is the negative log10 of concentration, concentration in mol/L.

molecule	measured-on	pEC50
COC(=O)N[C@H](C(=O)N1CCC[C@H]1c1ncc(-c2cc(F)c3c(c2)OC(c2ccc4c(c2)CCCO4)n2c-3cc3cc(-c4cnc([C@@H]5C[C@H]6C[C@H]6N5C(=O)[C@@H](NC(=O)OC)C(C)C)[nH]4)ccc32)[nH]1)C(C)C (single isomer, unassigned) [Compound 45]	HCV replicon 1A	12.00

Problem: Please look up its pEC50: COC(=O)NC(C(=O)N1[C@@H]2C[C@@H]2C[C@H]1c1ncc(-c2ccc3c(c2)cc2n3C(c3ccc4c(c3)CCCO4)Oc3cc(-c4cnc([C@@H]5CCCN5C(=O)[C@@H](NC(=O)OC)C(C)C)[nH]4)cc(F)c3-2)[nH]1)C1C[C@@H](C)O[C@@H](C)C1 (single isomer, unassigned) [Compound 66]
Solution: 11.47

* * *

System: HCV replicon 1A
method: Cell-based HCV replicon assay (Replicon Assay A), replicon 1A
Parameters: species or system Hepatitis C virus
assay-context: replicon RNA by real time PCR, day 3
parameter: EC50 (pM)
Answer in pM, number only, no unit symbol.

compound	measured-on	result-unit	EC50
COC(=O)NC(C(=O)N1CCC[C@H]1c1ncc(-c2ccc3c(c2)cc2n3C(c3ccc4c(c3)OCCC4)Oc3cc(-c4cnc([C@@H]5CCCN5C(=O)[C@@H](NC(=O)OC)C(C)C)[nH]4)cc(C)c3-2)[nH]1)C1C[C@@H](C)O[C@@H](C)C1 (single isomer, unassigned)	HCV replicon 1A	pM	3

Now for the compound whose EC50 we want.
Problem: Please look up its EC50: COC(=O)N[C@H](C(=O)N1CCC[C@H]1c1ncc(-c2cc(F)c3c(c2)OC(c2ccc4c(c2)OC(C)CC4)n2c-3cc3cc(-c4cnc([C@@H]5CCCN5C(=O)[C@@H](NC(=O)OC)C(C)C)[nH]4)ccc32)[nH]1)C(C)C (single isomer, unassigned) [Compound 12]
Solution: 1.6

* * *

System: HCV replicon 1B
method: Cell-based HCV replicon assay (Replicon Assay B), replicon 1B
Design: species or system Hepatitis C virus
assay-context: replicon RNA by real-time PCR, 3 days
parameter: EC50 (pM)
Answer in pM, number only, no unit symbol.

compound	EC50 (pM)
COC(=O)NC(C(=O)N1CCC[C@H]1c1ncc(-c2cc(F)c3c(c2)OC(c2ccc4c(c2)OCCC4)n2c-3cc3cc(-c4cnc([C@@H]5CCCN5C(=O)[C@@H](NC(=O)OC)C5CCOCC5)[nH]4)ccc32)[nH]1)C(C)(C)F (single isomer, unassigned) [Compound 90]	3.2

Problem: Report EC50 for COC(=O)N[C@H](C(=O)N1CCC[C@H]1c1ncc(-c2cc(F)c3c(c2)OC(c2ccc4c(c2)OCCC4)n2c-3cc3cc(-c4cnc([C@@H]5CCCN5C(=O)[C@@H](NC(=O)OC)C5CCOCC5)[nH]4)ccc32)[nH]1)C(C)C (single isomer, unassigned) [Compound 32] tested on HCV replicon 1B.
Solution: 2.6

Problem: Report EC50 for COC(=O)NC(C(=O)N1CCC[C@H]1c1ncc(-c2ccc3c(c2)cc2n3C(c3ccc4c(c3)OCCC4)Oc3cc(-c4cnc([C@@H]5CCCN5C(=O)[C@@H](NC(=O)OC)C(C)C)[nH]4)cc(F)c3-2)[nH]1)C1CCOC(C)(C)C1 (single isomer, unassigned) [Compound 80] tested on HCV replicon 1B.
Solution: 3.2

Problem: Report EC50 for COC(=O)NC(C(=O)N1CCC[C@H]1c1ncc(-c2ccc3c(c2)cc2n3C(c3ccc4c(c3)OC(C)CC4)Oc3cc(-c4cnc([C@@H]5CCCN5C(=O)[C@@H](NC(=O)OC)C(C)C)[nH]4)cc(F)c3-2)[nH]1)C1CCOC(C)(C)C1 (single isomer, unassigned) [Compound 64] tested on HCV replicon 1B.
Solution: 4

* * *

Tested on: HCV replicon 1A
method: Cell-based HCV replicon assay (Replicon Assay A), replicon 1A
Parameters: species or system Hepatitis C virus
assay-context: Hepatitis C virus, 72 h, replicon RNA by real time PCR, day 3
Method: To measure cell-based anti-HCV activity of compounds of the present invention, two complimentary assays were employed using various replicons. […] The replicon RNA level was measured using real time PCR (TaqMan® EZ RT-PCR, Applied Biosystems 403028) with the following primers and probes: […] The amount of HCV replicon RNA per cell was quantified using a linear regression curve for a known nanogram (ng) amount of HCV replicon total RNA. […]
parameter: EC50 (pM)
Answer in pM, number only, no unit symbol.

compound	result-unit	EC50
COC(=O)N[C@H](C(=O)N1CCC[C@H]1c1ncc(-c2cc(F)c3c(c2)OC(c2ccc4c(c2)OCCC4(F)F)n2c-3cc3cc(-c4cnc([C@@H]5CCCN5C(=O)[C@@H](NC(=O)OC)C(C)C)[nH]4)ccc32)[nH]1)C(C)C (single isomer, unassigned)	pM	1.4
COC(=O)N[C@H](C(=O)N1CCC[C@H]1c1ncc(-c2cc(F)c3c(c2)OC(c2ccc4c(c2)OCCC4)n2c-3cc3cc(-c4cnc([C@@H]5CCCN5C(=O)[C@@H](NC(=O)OC)C5CCOCC5)[nH]4)ccc32)[nH]1)C(C)C (single isomer, unassigned)	pM	1.5

Problem: Report EC50 for COC(=O)N[C@H](C(=O)N1CCC[C@H]1c1ncc(-c2cc(F)c3c(c2)OC(c2ccc4c(c2)OC(C)CC4)n2c-3cc3cc(-c4cnc([C@@H]5CCCN5C(=O)[C@@H](NC(=O)OC)C(C)C)[nH]4)ccc32)[nH]1)C(C)C (single isomer, unassigned) tested on HCV replicon 1A.
Solution: 2.5

Problem: Report EC50 for COC(=O)N[C@H](C(=O)N1CCC[C@H]1c1ncc(-c2cc(F)c3c(c2)OC(c2ccc4c(c2)OC(C)(C)CC4)n2c-3cc3cc(-c4cnc([C@@H]5CCCN5C(=O)[C@@H](NC(=O)OC)C(C)C)[nH]4)ccc32)[nH]1)C(C)C (single isomer, unassigned) tested on HCV replicon 1A.
Solution: 2.2

Problem: Report EC50 for COC(=O)NC(C(=O)N1CCC[C@H]1c1ncc(-c2ccc3c(c2)cc2n3C(c3ccc4c(c3)OCCC4)Oc3cc(-c4cnc([C@@H]5CCCN5C(=O)[C@@H](NC(=O)OC)C(C)C)[nH]4)cc(F)c3-2)[nH]1)C1C[C@@H](C)O[C@@H](C)C1 (single isomer, unassigned) tested on HCV replicon 1A.
Solution: 1.8

Problem: Report EC50 for COC(=O)NC(C(=O)N1CCC[C@H]1c1ncc(-c2ccc3c(c2)cc2n3C(c3ccc4c(c3)CCCO4)Oc3cc(-c4cnc([C@@H]5CCCN5C(=O)[C@@H](NC(=O)OC)C(C)C)[nH]4)cc(F)c3-2)[nH]1)C1C[C@@H](C)O[C@@H](C)C1 (single isomer, unassigned) tested on HCV replicon 1A.
Solution: 3.1

Problem: Report EC50 for COC(=O)N[C@H](C(=O)N1CCC[C@H]1c1ncc(-c2cc(F)c3c(c2)OC(c2ccc4c(c2)CCCO4)n2c-3cc3cc(-c4cnc([C@@H]5CCCN5C(=O)[C@@H](NC(=O)OC)C(C)C)[nH]4)ccc32)[nH]1)C(C)C (single isomer, unassigned) tested on HCV replicon 1A.
Solution: 2

Problem: Report EC50 for COC(=O)NC(C(=O)N1CCC[C@H]1c1ncc(-c2ccc3c(c2)cc2n3C(c3ccc4c(c3)OC(C)CC4)Oc3cc(-c4cnc([C@@H]5CCCN5C(=O)[C@@H](NC(=O)OC)C(C)C)[nH]4)cc(F)c3-2)[nH]1)C1C[C@@H](C)O[C@@H](C)C1 (single isomer, unassigned) tested on HCV replicon 1A.
Solution: 2

Problem: Report EC50 for COC(=O)N[C@H](C(=O)N1CCC[C@H]1c1ncc(-c2cc(F)c3c(c2)OC(c2ccc4c(c2)OCCC4)n2c-3c(F)c3cc(-c4cnc([C@@H]5CCCN5C(=O)[C@@H](NC(=O)OC)C5CCOCC5)[nH]4)ccc32)[nH]1)C(C)C (single isomer, unassigned) tested on HCV replicon 1A.
Solution: 1.1

Problem: Report EC50 for COC(=O)NC(C(=O)N1[C@@H]2C[C@@H]2C[C@H]1c1ncc(-c2ccc3c(c2)cc2n3C(c3ccc4c(c3)CCCO4)Oc3cc(-c4cnc([C@@H]5CCCN5C(=O)[C@@H](NC(=O)OC)C(C)C)[nH]4)cc(F)c3-2)[nH]1)C1C[C@@H](C)O[C@@H](C)C1 (single isomer, unassigned) tested on HCV replicon 1A.
Solution: 2.9

Problem: Report EC50 for COC(=O)N[C@H](C(=O)N1CCC[C@H]1c1ncc(-c2ccc3c(c2)OC(c2ccc4c(c2)OCCC4)n2c-3cc3cc(-c4cnc([C@@H]5C[C@H]6C[C@H]6N5C(=O)[C@@H](NC(=O)OC)C(C)C)[nH]4)ccc32)[nH]1)C(C)C (single isomer, unassigned) tested on HCV replicon 1A.
Solution: 1.6

Problem: Report EC50 for COC(=O)N[C@H](C(=O)N1CCC[C@H]1c1ncc(-c2cc(F)c3c(c2)OC(c2ccc4c(c2)CCC(C)(C)O4)n2c-3cc3cc(-c4cnc([C@@H]5CCCN5C(=O)[C@@H](NC(=O)OC)C(C)C)[nH]4)ccc32)[nH]1)C(C)C (single isomer, unassigned) tested on HCV replicon 1A.
Solution: 1.5

Problem: Report EC50 for COC(=O)N[C@H](C(=O)N1CCC[C@H]1c1ncc(-c2cc(F)c3c(c2)OC(c2ccc4c(c2)OCCC4C)n2c-3cc3cc(-c4cnc([C@@H]5CCCN5C(=O)[C@@H](NC(=O)OC)C(C)C)[nH]4)ccc32)[nH]1)C(C)C (single isomer, unassigned) tested on HCV replicon 1A.
Solution: 1.7

Problem: Report EC50 for COC(=O)N[C@H](C(=O)N1CCC[C@H]1c1ncc(-c2cc(F)c3c(c2)OC(c2ccc4c(c2)CC2CC2(C)O4)n2c-3cc3cc(-c4cnc([C@@H]5CCCN5C(=O)[C@@H](NC(=O)OC)C(C)C)[nH]4)ccc32)[nH]1)C(C)C (single isomer, unassigned) tested on HCV replicon 1A.
Solution: 3.7

Data origin, for the record: patent US10738062B2
